Data origin: PubChem BioAssay AID1117280

- target.or.system: Transthyretin (Homo sapiens) (UniProt P02766)
- test.name: compounds raising TTR promoter-driven luciferase – cell-based, luminescence, SH-SY5Y, triplicate, confirmation (AID 1117280);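 also: 0% = DMSO-treated cells and 100% = recombinant Lucia luciferase without cells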
- condition.details: SHSY5Y TTR promoter Gaussia luciferase, at 16.7 µM, hits give high values, 100% = purified Lucia enzyme wells, no cells
Hit rate of the full screen: of about 1,100 compounds, fewer than 10 were called active. A selection follows.
measured.quantity: activation

>>> reported("C/C(CC(=O)Nc1ccc(N(C)C)cc1)=N\\NC(=O)c1ccccc1F")
"0.83% (inactive)"
>>> reported("CCOC(=O)c1cc(-c2ccc(Cl)s2)nc2c1c(C)nn2C")
"0.17% (inactive)"
>>> reported("O=C(O)C1OC(C(=O)O)C2C1C(F)(F)C2(F)F (stereo not drawn)")
"0.77% (inactive)"

###

- target.or.system: Transthyretin (Homo sapiens)
- test.name: compounds raising TTR promoter-driven luciferase – cell-based, luminescence, SH-SY5Y, triplicate, confirmation (AID 1117280);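 also: 0% = DMSO-treated cells and 100% = recombinant Lucia luciferase without cells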
- condition.details: SHSY5Y TTR promoter Gaussia luciferase, at 16.7 µM, hits give high values, 100% = purified Lucia enzyme wells, no cells
Fewer than 10 of roughly 1,100 compounds were called active. A selection follows.
A collection of compounds and their measured activation
measured.quantity: activation (%)

>>> reported("O=S(=O)(NCCCN1CCOCC1)c1ccc(F)c(Cl)c1")
1.67
>>> reported("Cn1cc(CN2CCCC(CO)C2)c(-c2ccc(Oc3ccccc3)cc2)n1 (stereo not drawn)")
2.56
>>> reported("Cc1ccccc1/[N+]([O-])=C/c1ccncc1")
0.64
>>> reported("Cc1cccc(C)c1NC(=O)CN1C(=O)C(C)Oc2ccccc21 (stereo not drawn)")
-0.02
>>> reported("COc1ccc(C2c3ccc(O)cc3Oc3ncn(CCCO)c(=N)c32)cc1OC (stereo not drawn)")
-0.83
>>> reported("CCOc1ccccc1NC(=O)COc1ccc(S(=O)(=O)N2CCCC2)cc1")
1.24
>>> reported("O=C(Nc1ccccc1C(=O)N1CCCCCC1)c1ccccc1Cl")
0.38
>>> reported("O=C(NNC(=O)c1cc(S(=O)(=O)N2CCCCC2)ccc1Cl)c1ccccc1O")
0.18
>>> reported("Cc1ccc(CN2CCCOCCS2(=O)=O)cc1")
0.01
>>> reported("Cc1cccc(N2C(=O)CC(SC(N)=Nc3ccccc3)C2=O)c1 (stereo not drawn)")
-0.45
>>> reported("Cc1nc(-c2ccc(Cl)cc2)sc1C(=O)NN")
1.27
>>> reported("CC(C)(C)C1CCC(OC(=O)CCC(=O)Nc2ccccc2)CC1 (stereo not drawn)")
-1.07
>>> reported("CCCCOCCCNC(=O)C[C@H]1C[C@@]2(C(=O)OC)C(=C[C@H](C(C)(C)C)O[C@@H]2C)N(CCc2ccc(OC)c(OC)c2)C1=O")
-0.4
>>> reported("COc1cccc(-c2cnc(C(O)c3ccccc3OC)[nH]2)c1 (stereo not drawn)")
-0.09
>>> reported("COc1cc(C(C)=O)ccc1OC(C)C(=O)Nc1ccc(S(=O)(=O)N2CCCC2)cc1 (stereo not drawn)")
0.49
>>> reported("O=C1c2cccc(OCC(=O)N3N=C(c4cccs4)CC3c3ccc(F)cc3)c2CCN1Cc1ccccc1 (stereo not drawn)")
-0.93
>>> reported("C=C1C(C(C)C)N(C)C2=NC(c3ccccc3)CC(=O)N12 (stereo not drawn)")
0.07
>>> reported("C[C@H](NC(=O)C1CCN(S(=O)(=O)c2ccccc2)CC1)C(=O)NCc1ccccc1")
-0.18
>>> reported("C(=N\\n1cnnc1)/c1cccnc1")
0.91
>>> reported("CSCCC(NC(N)=O)C(=O)N(C)CC(=O)Nc1ccc(C)cc1 (stereo not drawn)")
-0.85
>>> reported("O=C(Nc1cccc(O)c1)c1ccc(C(=O)c2ccccc2)o1")
-1.44
>>> reported("Cc1cc(C)c(C#N)c(N2CCC(C(N)=O)CC2)n1")
-0.71
>>> reported("O=C(O)Cn1c(Cc2ccccc2)nc2ccccc21")
-0.81
